target: staphylococcal enterotoxin B (Staphylococcus aureus (strain not …, UniProt P01552)); assay: SPR; conditions: both partners purified
Sequence (P01552 28-266): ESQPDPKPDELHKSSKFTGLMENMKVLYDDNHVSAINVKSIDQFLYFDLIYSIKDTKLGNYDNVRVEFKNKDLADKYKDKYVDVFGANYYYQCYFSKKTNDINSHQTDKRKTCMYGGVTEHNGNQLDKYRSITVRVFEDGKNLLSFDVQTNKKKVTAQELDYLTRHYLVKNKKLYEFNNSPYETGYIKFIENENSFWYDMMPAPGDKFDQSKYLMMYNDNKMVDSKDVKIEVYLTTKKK
Rule: koff of 0.0008 s⁻¹ or more gives Satisfied; anything lower gives Not satisfied.

Incoming: Reported koff at or above 0.0008 s⁻¹? sdAb F1 (VHH, source: E. coli Rosetta (DE3), periplasm, purified (IMAC, size exclusion chromatography)) VHH: DVQLQASGGGLVQAGGSLRLTCAASLHTFGSYAMGWFRQAPGKEREFVAAISWSGGDTYSDSVKGRFTISRDNAKNTVYLQMNSLEPEDTAVYSCAAVEARYYISTDAKDYGYWGQGTQVTVSS
Outgoing: Not satisfied

Incoming: Could you do the same for sdAb H12 (VHH, source: E. coli Rosetta (DE3), periplasm, purified (IMAC, size exclusion chromatography)) VHH: EVQLQASGGGLVLTGGSLRLSCAASGRNFSNYAMAWFRQAPGKEREFVGTISWYTNTNYANSVKGRFSISRDNAKNTVYLQMSSLKPEDTAVYYCAAAPAMYYNPYTRESEYGYWGQGTQVTVSS , please?
Outgoing: Not satisfied

Incoming: Could you do the same for sdAb A10 (VHH, source: E. coli Rosetta (DE3), periplasm, purified (IMAC, size exclusion chromatography)) VHH: EVQLQASGGGLVRAGGTLRLTCDATTPTFGSYAMGWFRQAPGKEREFVSAISWSGGDTYADSVKGRFTISRDNTRNRVYLQMNDLEPDDTAIYTCARTTARYYISKDAKDYDYWGQGTQVTVSS , please?
Outgoing: Not satisfied

Incoming: Could you do the same for sdAb H9 (VHH, source: E. coli Rosetta (DE3), periplasm, purified (IMAC, size exclusion chromatography)) VHH: EVQLQASGGGLVQAGGSLRLTCAVSGPTFGSYALGWFRQAPGKEREFVAAVSWSGGDTYADSVKGRFIISRDNAKNTVYLQMNNLEPEDTAVYSCARMQDRYYISKDAKDYGYWGQETQVTVSS , please?
Outgoing: Not satisfied

Incoming: Could you do the same for sdAb H9-H11 (VHH, source: E. coli, periplasm, purified (IMAC, size exclusion chromatography)) VHH: DVQLQASGGGLVQPGGSLRLSCAASESAVRIGFMGWHRQAPGNQRERVAQISSTGLPTYADAVKGRFTISRDNTKNTVYLQMNSLNADDTAVYFCNARLYDGTSVWGQGTQVTVSS , please?
Outgoing: Not satisfied

Incoming: Could you do the same for sdAb H9-B11 (VHH, source: E. coli, periplasm, purified (IMAC, size exclusion chromatography)) VHH: DVQLQASGGGLVQVGGSLRLSCAASGSTFRIGYMGWYRQAPGKPRELVARISSGGTTDYLDFVKDRFTISRDNAKNTVYLQMSSLKPEDTAVYYCNVVNYRANEYWGQGTQVTVSS , please?
Outgoing: Not satisfied

Incoming: Could you do the same for sdAb E9 (VHH, source: E. coli Rosetta (DE3), periplasm, purified (IMAC, size exclusion chromatography)) VHH: EVQLQASGGGLVQAGGSLRLSCAASGRDFSDYAMAWFRQAPGKEREFVGTISWYTNTNYADSVKGRFSISRDNAKNTVYLQMSSLKPEDTAVYYCAAAPARYYNPYKRESEYGYWGQGTQVTVSS , please?
Outgoing: Not satisfied

Incoming: Could you do the same for sdAb S222-A2 (VHH, source: E. coli, periplasm, purified (IMAC, size exclusion chromatography)) VHH: DVQLQASGGGLVEPGGSLRLSCAASGSAVSIGFMGWHRQAPGKQRERVAQISSTGIPNYADTVKGRFTISRDNTKNTMYLQMNSLNADDTAVYFCNARLYDGTSAWGQGTQVTVSS , please?
Outgoing: Satisfied

Incoming: Could you do the same for sdAb H9-A1 (VHH, source: E. coli Rosetta (DE3), periplasm, purified (IMAC, size exclusion chromatography)) VHH: EVQLQASGGGLVQPGGSLRLSCAASGSAVSIGFMAWYRQAPGKQRELVARISSSGLPDYADTVKGRFTISRDNTRKTVSLQMNSLNPDDTAVYYCNARLYDGSSAWGQGTQVTVSS , please?
Outgoing: Satisfied

Incoming: Could you do the same for sdAb E2 (VHH, source: E. coli Rosetta (DE3), periplasm, purified (IMAC, size exclusion chromatography)) VHH: EVQLQASGGGLVQAGGSLRLTCAASGRTFGSYAMGWFRQAPGKEREFVAAISWSGGDTYADSVKGRFTISRDNAKNTVYLQMNSLAPEDTAVYSCAAVGARYYISKDAKDYGYWGQGTQVTVSS , please?
Outgoing: Satisfied
